- test_target: MDM2 (Homo sapiens, UniProt Q00987)
- Sequence (Q00987 whole entry): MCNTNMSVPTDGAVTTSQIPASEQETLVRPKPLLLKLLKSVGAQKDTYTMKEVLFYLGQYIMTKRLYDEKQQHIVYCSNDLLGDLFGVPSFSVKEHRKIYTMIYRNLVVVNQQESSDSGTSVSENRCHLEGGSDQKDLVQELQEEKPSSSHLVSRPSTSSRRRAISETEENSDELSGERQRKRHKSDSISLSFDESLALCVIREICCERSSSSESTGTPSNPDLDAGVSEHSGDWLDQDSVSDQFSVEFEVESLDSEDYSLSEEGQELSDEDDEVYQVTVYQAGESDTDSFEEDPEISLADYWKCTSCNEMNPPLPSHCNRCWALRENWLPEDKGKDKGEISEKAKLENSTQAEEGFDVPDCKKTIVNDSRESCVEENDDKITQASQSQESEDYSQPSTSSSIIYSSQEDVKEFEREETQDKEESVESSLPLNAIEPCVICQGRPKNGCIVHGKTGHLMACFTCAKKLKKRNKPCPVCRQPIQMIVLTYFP
- assay_explanation: MDM2 binding screen of Libraries 3 and 4: displacement of fluorescent probe F-M8 at 750 nM macrocycle
- measurement_parameters: Panel b, Library 3: 63 scaffolds combinatorially acylated with 15 carboxylic acids at 30 picomole scale; displacement of fluorescent peptide probe; macrocycle 750 nM
Overview of recorded fraction of fluorescent probe displaced for various molecules
# respond with the number and nothing more

Please review the following examples before continuing.
>  <molecule>
O=C(/C=C/c1ccncc1)NC[C@H]1NC(=O)C2(CC2)CNC(=O)CCSSCCNC(=O)[C@H](Cc2c[nH]c3cc(Cl)ccc23)NC1=O [X-Amcp-D-Dap-Cl-Trp + Acid 106]

>  <test_target>
MDM2 (Homo sapiens, UniProt Q00987)

>  <fraction of fluorescent probe displaced>
0.018

$$$$
>  <molecule>
O=C(NC[C@@H]1NC(=O)[C@@H]2CN(CCO2)C(=O)CCSSCCNC(=O)[C@H](Cc2c[nH]c3ccccc23)NC1=O)c1cccc(Oc2ccccc2)c1 [X-Cop-Dap-Trp + Acid 111]

>  <test_target>
MDM2 (Homo sapiens, UniProt Q00987)

>  <fraction of fluorescent probe displaced>
0.048

$$$$
>  <molecule>
O=C(NC[C@@H]1NC(=O)[C@@H]2CN(CCO2)C(=O)CCSSCCNC(=O)[C@H](Cc2c[nH]c3cc(Cl)ccc23)NC1=O)c1ccc(Cl)s1 [X-Cop-Dap-Cl-Trp + Acid 14]

>  <test_target>
MDM2 (Homo sapiens, UniProt Q00987)

>  <fraction of fluorescent probe displaced>
0.128

$$$$
>  <molecule>
O=C(/C=C/c1ccc2ccccc2c1)NCCN1CC(=O)N[C@@H](Cc2c[nH]c3cc(Cl)ccc23)C(=O)NCCSSCCC(=O)N2CCC[C@@H](C2)C1=O [X-Nip-N-Aeg-Cl-Trp + Acid 112]

>  <test_target>
MDM2 (Homo sapiens, UniProt Q00987)

>  <fraction of fluorescent probe displaced>
0.00133

$$$$

API: the following record is the query input.
Data point: CN1C(=O)[C@H](CNC(=O)c2ccc(Cl)cc2)NC(=O)[C@H]2CCCN(C2)C(=O)CCSSCCNC(=O)[C@@H]1Cc1c[nH]c2ccccc12 [X-Nip-Dap-NMe-Trp + Acid 25] ; fraction of fluorescent probe displaced = 0.00133

---

- test_target: MDM2 (Homo sapiens, UniProt Q00987)
- assay_explanation: MDM2 binding screen of Libraries 3 and 4: displacement of fluorescent probe F-M8 at 750 nM macrocycle
- measurement_parameters: Panel c, Library 4: best nine scaffolds and 15 additional carboxylic acids; displacement of fluorescent probe
result_type: fraction of fluorescent probe displaced

Data point: `Cn1cc(C[C@@H]2NC(=O)[C@H](CNC(=O)/C=C/c3ccc(Cl)c(Cl)c3)NC(=O)[C@H]3CCCN(C3)C(=O)CCSSCCNC2=O)c2ccccc21` ; fraction of fluorescent probe displaced = 0.085

Data point: CCOc1ccc(C=CC(=O)NCC2NC(=O)C3CN(CCO3)C(=O)CCSSCCNC(=O)C(Cc3c[nH]c4ccccc34)NC2=O)cc1 (centres unmarked) ; fraction of fluorescent probe displaced = 0.199

Data point: `CCCOc1ccc(/C=C/C(=O)NC[C@@H]2NC(=O)[C@H]3CCCN(C3)C(=O)CCSSCCNC(=O)[C@H](Cc3ccc4ccccc4c3)NC2=O)cc1` ; fraction of fluorescent probe displaced = 0.012

Data point: `O=C(/C=C/c1cccc(Cl)c1)NC[C@@H]1NC(=O)C2(CC2)CNC(=O)CCSSCCNC(=O)[C@H](Cc2c[nH]c3ccccc23)NC1=O` ; fraction of fluorescent probe displaced = 0.052

Data point: `CC(C)c1ccc(/C=C/C(=O)NC[C@@H]2NC(=O)[C@H]3CCCN(C3)C(=O)CCSSCCNC(=O)[C@H](Cc3cccc4ccccc34)NC2=O)cc1` ; fraction of fluorescent probe displaced = 0.0035

---

- test_target: thrombin (Homo sapiens, UniProt P00734)
- Construct: consists of two polypeptide chains of 36 (light chain) and 259 amino acid
- assay_explanation: Thrombin inhibition screen of crude macrocycle reactions (residual thrombin activity, fluorogenic substrate Z-Gly-Gly-Arg-AMC)
- Type: biochemical
- measurement_parameters: 10 µM macrocycle concentration; macrocycles containing acid 14; crude reaction; replicate reaction and screen
Numbered stars: 1 amine (or outer) side, 2 acyl side, 3 side chain; on linkers, the order of the positions; unused ones are H or OH. Bridge positions count the residues as written; N and C are the ends. Square brackets hold non-standard residues; d marks the D form. Peptide text beside a SMILES is read from it. * marks the point of attachment. 2Thenoyl(5-Cl) = O=C(c1ccc(Cl)s1)*; Cysteamide = C(CS[*:3])N[*:1]; Orn = NCCC[CH](N)C(=O)O; Dap = NC[CH](N)C(=O)O; Mpa = O=C(O)CCS
result_type: % thrombin activity, Repeat screen
# include the unit after the value

>  <compound>
O=C(NCCCC[C@@H]1NC(=O)[C@@H]2CCCN2C(=O)CCSSCCNC(=O)[C@@H](Cc2ccc(O)cc2)NC1=O)c1ccc(Cl)s1 [X B1 D1 y] ([Mpa]PK(2Thenoyl(5-Cl))[dY]-Cysteamide; disulfide 1-C)

>  <test_target>
thrombin (Homo sapiens, UniProt P00734)

>  <% thrombin activity, Repeat screen>
108.0%

$$$$
>  <compound>
CC(C)C1NC(=O)C2CCCN2C(=O)C(CNC(=O)c2ccc(Cl)s2)NC(=O)CCSSCCNC1=O (centres unmarked) [X D3 B1 v] ([Mpa][Dap](2Thenoyl(5-Cl))PV-Cysteamide; disulfide 1-C; configuration not given here)

>  <test_target>
thrombin (Homo sapiens, UniProt P00734)

>  <% thrombin activity, Repeat screen>
95.4%

$$$$
>  <compound>
CC(C)C1NC(=O)C(NC(=O)c2ccc(Cl)s2)CSSCCNC(=O)c2cccc(c2)CNC(=O)CNC1=O (centres unmarked)

>  <test_target>
thrombin (Homo sapiens, UniProt P00734)

>  <% thrombin activity, Repeat screen>
111.8%

$$$$
>  <compound>
O=C1CCSSCCNC(=O)[C@H](Cc2ccccc2)NC(=O)[C@H]2CCCN(C2)C(=O)[C@H](CNC(=O)c2ccc(Cl)s2)N1

>  <test_target>
thrombin (Homo sapiens, UniProt P00734)

>  <% thrombin activity, Repeat screen>
62.9%

$$$$
>  <compound>
O=C(NCCCC[C@@H]1NC(=O)[C@H](Cc2c[nH]c3ccccc23)NC(=O)[C@H]2CCCN(C2)C(=O)CCSSCCNC1=O)c1ccc(Cl)s1 [X B4 W D1]

>  <test_target>
thrombin (Homo sapiens, UniProt P00734)

>  <% thrombin activity, Repeat screen>
86.6%

$$$$

Data point: `O=C1CCSSCCNC(=O)[C@H](Cc2ccccc2)NC(=O)[C@H](CNC(=O)c2ccc(Cl)s2)NC(=O)C2(CC2)CN1` ; % thrombin activity, Repeat screen = 68.6%

Data point: `CC[C@H](C)[C@@H]1NC(=O)[C@H](CNC(=O)c2ccc(Cl)s2)NC(=O)CCSSCCNC(=O)c2ccc(cc2)CNC1=O` ; % thrombin activity, Repeat screen = 88.8%

Data point: `CC[C@H](C)[C@@H]1NC(=O)CCSSCCNC(=O)[C@H](CNC(=O)c2ccc(Cl)s2)NC(=O)CCNC1=O` ; % thrombin activity, Repeat screen = 70.2%

Data point: O=C1CCSSCCNC(=O)C2CCCN2C(=O)C(Cc2ccc(O)cc2)NC(=O)C(CCCNC(=O)c2ccc(Cl)s2)N1 (centres unmarked) [X D2 Y B1] ([Mpa][Orn](2Thenoyl(5-Cl))YP-Cysteamide; disulfide 1-C; configuration not given here) ; % thrombin activity, Repeat screen = 96.3%

Data point: `O=C1CCSSCCNC(=O)[C@H](Cc2c[nH]c3ccccc23)NC(=O)c2ccc(cc2)CNC(=O)[C@H](CNC(=O)c2ccc(Cl)s2)N1` ; % thrombin activity, Repeat screen = 73.3%

Data point: O=C1CCSSCCNC(=O)C(Cc2c[nH]c3ccccc23)NC(=O)C(CNC(=O)c2ccc(Cl)s2)NC(=O)C2(CC2)CN1 (centres unmarked) ; % thrombin activity, Repeat screen = 95.8%

---

- test_target: MDM2 (Homo sapiens, UniProt Q00987)
- assay_explanation: MDM2 binding screen: displacement of fluorescent p53 peptide probe FP53 (fluorescence polarization)
- measurement_parameters: Acid 91; replicate; crude macrocycle reactions
- Protocol: We screened Library 2 in 384-microwell plates by dispensing the target protein MDM2 and reporter peptide into the wells containing the macrocycle reactions. The products were screened for displacement of a p53-based fluorescent peptide from human MDM2. […] For each macrocycle, the MDM2 binding was measured once. One fluorescence anisotropy reading was taken with a Tecan Infinite F200 Pro fluorescence plate reader (excitation at 485 nm, emission at 535 nm) at 25 °C. […]
Numbered stars: 1 amine (or outer) side, 2 acyl side, 3 side chain; on linkers, the order of the positions; unused ones are H or OH. Bridge positions count the residues as written; N and C are the ends. Square brackets hold non-standard residues; d marks the D form. Peptide text beside a SMILES is read from it. * marks the point of attachment. Pro(cis-4-NH-(E)-Cinnamoyl) = O=C(/C=C/c1ccccc1)N[C@@H]1CN[C@H](C(=O)O)C1; Cysteamide = C(CS[*:3])N[*:1]; X1 = O=C(/C=C/c1ccccc1)*; Dap = NC[C@H](N)C(=O)O; Mpa = O=C(O)CCS
Overview of recorded fraction fluorescent probe displaced, Replicate for various compounds

Please review the following examples before continuing.
>  <compound>
O=C(C=Cc1ccccc1)NC1CC2C(=O)NC(Cc3c[nH]c4ccccc34)C(=O)NCCSSCCC(=O)NCc3cccc(c3)C(=O)N2C1 (centres unmarked) [X B5 D5 W Acid 91]

>  <data_value>
0.0168

$$$$
>  <compound>
O=C(/C=C/c1ccccc1)NC[C@@H]1NC(=O)[C@H](Cc2ccccc2)NC(=O)CCSSCCNC(=O)[C@@H]2CCCN2C1=O [X F D3 B1 Acid 91] ([Mpa]F[Dap](X1)P-Cysteamide; disulfide 1-C)

>  <data_value>
-0.00827

$$$$
>  <compound>
O=C1CCSSCCNC(=O)C(Cc2ccccc2)NC(=O)C2(CCN(C(=O)C=Cc3ccccc3)CC2)NC(=O)c2cccc(c2)CN1 (centres unmarked) [X B5 D6 F Acid 91]

>  <data_value>
-0.08

$$$$
>  <compound>
O=C1CCSSCCNC(=O)C2(CCN(C(=O)/C=C/c3ccccc3)CC2)NC(=O)[C@H](Cc2ccccc2)NC(=O)CCN1 [X B2 F D6 Acid 91]

>  <data_value>
0.12

$$$$
>  <compound>
O=C(/C=C/c1ccccc1)NC[C@@H]1NC(=O)[C@@H]2CCCN2C(=O)CCSSCCNC(=O)[C@H](Cc2c[nH]c3ccccc23)NC1=O [X B1 D3 W Acid 91] ([Mpa]P[Dap](X1)W-Cysteamide; disulfide 1-C)

>  <data_value>
0.07

$$$$
>  <compound>
O=C(C=Cc1ccccc1)NCC1NC(=O)C2CCCN(C2)C(=O)CCSSCCNC(=O)C(Cc2c[nH]c3ccccc23)NC1=O (centres unmarked) [X B4 D3 W Acid 91]

>  <data_value>
0.49

$$$$
>  <compound>
O=C(/C=C/c1ccccc1)NC[C@@H]1NC(=O)CCSSCCNC(=O)[C@@H]2CCCN2C(=O)[C@H](Cc2ccccc2)NC1=O [X D3 F B1 Acid 91] ([Mpa][Dap](X1)FP-Cysteamide; disulfide 1-C)

>  <data_value>
-0.06

$$$$
>  <compound>
O=C(C=Cc1ccccc1)NC1CC2C(=O)NCCSSCCC(=O)N3CCCC(C3)C(=O)NC(Cc3c[nH]c4ccccc34)C(=O)N2C1 (centres unmarked) [X B4 W D5 Acid 91]

>  <data_value>
0.12

$$$$

Data point: O=C(/C=C/c1ccccc1)NC[C@@H]1NC(=O)CCNC(=O)CCSSCCNC(=O)[C@H](Cc2c[nH]c3ccccc23)NC1=O [X B2 D3 W Acid 91] ; fraction fluorescent probe displaced, Replicate = 0.14

Data point: O=C(/C=C/c1ccccc1)N[C@H]1C[C@H]2C(=O)N3CCC[C@H]3C(=O)N[C@@H](Cc3c[nH]c4ccccc34)C(=O)NCCSSCCC(=O)N2C1 [X D5 B1 W Acid 91] ([Mpa][Pro(cis-4-NH-(E)-Cinnamoyl)]PW-Cysteamide; disulfide 1-C) ; fraction fluorescent probe displaced, Replicate = 0.07

Data point: O=C(/C=C/c1ccccc1)NC[C@@H]1NC(=O)c2cccc(c2)CNC(=O)[C@H](Cc2ccccc2)NC(=O)CCSSCCNC1=O [X F B5 D3 Acid 91] ; fraction fluorescent probe displaced, Replicate = 0.04

The origin of these recorded values is paper PMC9250534.
